Test system: HL-60(TB) leukemia
Experiment: NCI-60 one-dose screen, 48 h
Settings: 10 µM unless noted
The panel holds about 83,000 compounds, 20% with a hit somewhere; the sample as a whole holds those more often. Active and inactive are the calls of the source. The calls were made as follows: active = growth percent below 10; inactive = the rest.
Your reply should match one of these outcome classes. class 1 = active, class 0 = inactive

Previously resolved entries follow.
>  <Compound>
CC(=O)OC(C)C(=O)NCC(C)O (centres undefined)

>  <Label>
class 0

$$$$
>  <Compound>
Clc1ccc(C2=Nn3c(nnc3-c3cc(Cl)cc(Cl)c3Cl)SC2)cc1

>  <Label>
class 1

$$$$

Entry c1ccc(Cn2cc(-c3nc4ccccc4s3)c3cccnc32)cc1 : call = ?
class 0

How did this test come out for N=c1c(S(=O)(=O)c2ccccc2)cc2c(=O)n3ccccc3nc2n1CC1CCCO1 (centres undefined) ?
class 0

Dear all, I need the recorded test outcome for CS(=O)(=O)CCNCc1ccc(-c2ccc3ncnc(Nc4ccc(OCc5cccc(F)c5)c(Cl)c4)c3c2)o1 , thank you.
class 0

Query: recorded result category for O=C(Nc1cccc(-n2cc(-c3ccncc3)c(-c3ccc(O)c(Cl)c3)n2)c1)Nc1ccc(Cl)c(C(F)(F)F)c1 in this test
class 1

Record lookup: outcome of this test for Cc1cc(N2CCN(CC(=O)Nc3ccc4c(ccn4C)c3)CC2)nc(N2CCCCCC2)n1 ?
class 0

Give the logged outcome of this assay for the following compound: COC(=O)c1ccc2c(c1)c1c(C)c3ccncc3c(C)c1n2C
class 0

What classification did COc1cc(C(=O)Nc2cc(O)c(C/C=C(\C)CCC=C(C)C)c(O)c2)cc2c1O[C@]1(C)CC[C@@H](O)C(C)(C)[C@H]1C2 end up with in this test?
class 1

====

Tested on: HL-60(TB) leukemia
Assay: NCI-60 one-dose screen, 48 h (100 = growth as untreated, 0 = no growth, -100 = all killed)
Settings: 10 µM unless noted
About 83,000 compounds went through this panel and 20% of them were active in at least one assay; those are over-represented in the sample as a whole.
Outcome Measure: growth (%)
Give your result in % as a bare value.

>  <Compound>
CC(C)(C)n1cc(-c2ccnc(NCCCNS(=O)(=O)c3cccc4ccccc34)c2)c(-c2cccc(O)c2)n1

>  <growth / %>
25.4

$$$$
>  <Compound>
COCC(=O)Oc1cc(-c2ccc(C)cc2C)c(OC(=O)COC)c(-c2ccc(C)cc2C)c1

>  <growth / %>
36.9

$$$$

What the record says about C=C(C)[C@@H]1CC[C@]2(C(=O)OCCOCCOCC[P+](c3ccccc3)(c3ccccc3)c3ccccc3)CC[C@]3(C)[C@H](CC[C@@H]4[C@@]5(C)CC[C@H](OC(C)=O)C(C)(C)[C@@H]5CC[C@]43C)[C@@H]12 : growth is -62.3

====

Tested on: KM12 colon
Assay: NCI-60 one-dose screen, 48 h (100 = growth as untreated, 0 = no growth, -100 = all killed)
Settings: 10 µM unless noted
Compounds without any hit were thinned out: in the full panel of roughly 83,000, 20% have a hit. Activity calls are given as the source filed them. The calls were made as follows: active = growth percent below 10; inactive = the rest.
In this section we review reported growth values for a set of molecules.

Here are 5 molecules together with their reported answers.
>  <Molecule>
O=C(CCCN1CCC2(CC1)C(=O)NCN2c1ccc(F)cc1)c1ccc(F)cc1

>  <Outcome Measure>
growth

>  <Reported Measurement>
108% (inactive)

$$$$
>  <Molecule>
CCC[CH2][Sn]([CH2]CCC)([CH2]CCC)[O]C(=O)CC

>  <Outcome Measure>
growth

>  <Reported Measurement>
-93.2% (active)

$$$$
>  <Molecule>
CC(C)[C@]12O[C@H]1[C@@H]1O[C@]13[C@]1(O[C@H]1C[C@H]1C4=C(CC[C@@]13C)C(=O)OC4)[C@@H]2OC(=O)OC(C)(C)C

>  <Outcome Measure>
growth

>  <Reported Measurement>
2.1% (active)

$$$$
>  <Molecule>
CC(=O)N1N=C(c2ccccc2)CC1c1sc(N(CCCl)CCCl)nc1Cl (stereo unspecified)

>  <Outcome Measure>
growth

>  <Reported Measurement>
95.8% (inactive)

$$$$
>  <Molecule>
C[C@]12C[C@H](O)[C@H]3[C@@H](CCC4=CC(=O)CC[C@@]43C)[C@@H]1CC[C@@H]2O

>  <Outcome Measure>
growth

>  <Reported Measurement>
105% (inactive)

$$$$

Memo: CC1(C)CC(=O)CC(C)(C)N1N=O , reported growth: 99.1% (inactive)

# growth of Cc1cccc(N(C)c2cccc3c2C(=O)[Se]C3)c1C = 14.6% (inactive)

====

Tested on: HL-60(TB) leukemia
Experiment: NCI-60 one-dose screen, 48 h (100 = growth as untreated, 0 = no growth, -100 = all killed)
Conditions: 10 µM unless noted
This is part of a sample that, as a whole, favours compounds with a hit. Of some 83,000 tested, about 20% had one in any assay.
Outcome Measure: growth (%)
Respond with the bare value in %.

>  <Compound>
COc1ccc(/C=C/c2c(C(=O)/C=C/c3ccc(F)cc3)c(C)nc3ccccc23)cc1

>  <Tgt>
HL-60(TB) leukemia

>  <growth, %>
24.2

$$$$

Form: compound = COc1cc(C2CC(c3cccc(Nc4ccncc4)c3)=Nc3c(N)ncnc3N2)cc(OC)c1OC (stereo not given) ; growth = 83.7

For this compound ( Cc1ccc(-c2cc(C(=O)Nc3ccc(S(=O)(=O)N4CCCCC4)cc3)[nH]n2)c(O)c1 ), measured growth is 48.7

The value of growth measured for the compound O=C(O)c1cccc2cccc(-c3c4ccc(=O)c(O)c-4oc4c(O)c(O)ccc34)c12 turned out to be 67.6

growth measured on Cn1cnc([N+](=O)[O-])c1/C=C1\Oc2ccc(Br)cc2C1=O = 75.5

Record CC(C)(C)c1ccc(C(=O)Nc2sc3cc(O)ccc3c2C(N)=O)cc1 , field growth: 43.3

Entry under test: Cc1cc2ccccc2cn1 . Its growth was 91.6

Form field growth, entry COc1ccc(Nc2nc(-c3cc(O)c(C)c(C)c3O)cs2)cc1 : 7.17

Short answer for O=C(Cn1nncc1CN1C(=O)CSC1=O)Nc1ccc(F)cc1 : growth was 100

Item: COc1ccc2nc(/C=C/c3ccc(N(C)C)cc3)sc2c1 | growth: 51.1

====

Tested on: HL-60(TB) leukemia
Test: NCI-60 one-dose screen, 48 h (100 = growth as untreated, 0 = no growth, -100 = all killed)
Conditions: 10 µM unless noted
About 83,000 compounds went through this panel and 20% of them were active in at least one assay; those are over-represented in the sample as a whole.
The following compounds are listed with their measured growth values.
// note: answer is a bare numeric in %

# annotated cases, reported growth shown
>  <Compound>
COc1ccc(-c2nc(Nc3ccc(-c4nc5ccccc5[nH]4)cc3)nc(N3CCOCC3)n2)cc1

>  <Outcome Measure>
growth

>  <Reported Measurement>
-46

$$$$
>  <Compound>
CCOC(=O)NNc1[nH]c(-c2ccc(OC)cc2)cc1C#N

>  <Outcome Measure>
growth

>  <Reported Measurement>
-42.4

$$$$
>  <Compound>
CCCCN(CCCC)CCC(O)c1cc2ccc(C(F)(F)F)cc2c2cc(C(F)(F)F)ccc12 (centres undefined)

>  <Outcome Measure>
growth

>  <Reported Measurement>
49.8

$$$$

# compound CN(CCCCCl)P(=O)(OCc1ccc([N+](=O)[O-])o1)C(F)(F)c1ccc(CC(=O)NC[C@@H](O)/C=C\[C@@H](O)[C@H](CO)Cc2ccccc2)cc1 (some centres undefined) ; its growth = 80.3

====

Tested on: KM12 colon
Assay: NCI-60 one-dose screen, 48 h (100 = growth as untreated, 0 = no growth, -100 = all killed)
Conditions: 10 µM unless noted
This is part of a sample that, as a whole, favours compounds with a hit. Of some 83,000 tested, about 20% had one in any assay.
Outcome Measure: growth (%)
Field format: number, assumed %, no unit text.

Before answering, review these 10 worked examples.
>  <Compound>
NC(=O)C(Cl)Cl

>  <Tgt>
KM12 colon

>  <growth (%)>
110

$$$$
>  <Compound>
CCOC(=O)/C=C(\C)Nc1ccc(N/C(C)=C/C(=O)OCC)c2c1Oc1ccccc1O2

>  <Tgt>
KM12 colon

>  <growth (%)>
97.6

$$$$
>  <Compound>
Nc1c(Br)cc2c3c(cccc13)-c1ccccc1-2

>  <Tgt>
KM12 colon

>  <growth (%)>
57.4

$$$$
>  <Compound>
CC(/C=N/N=C(N)N)=N\N=C(N)N

>  <Tgt>
KM12 colon

>  <growth (%)>
40.9

$$$$
>  <Compound>
CC(=O)C1C(=O)N(C)C(=O)N(C)C1=O

>  <Tgt>
KM12 colon

>  <growth (%)>
107

$$$$
>  <Compound>
[Br][Pb]([c]1ccccc1)([c]1ccccc1)[c]1ccccc1

>  <Tgt>
KM12 colon

>  <growth (%)>
-99.4

$$$$
>  <Compound>
C/C(=C\c1cc(C(F)(F)F)n(-c2ccc(N)cc2)n1)[C@@H]1C[C@@H]2O[C@]2(C)CCC[C@H](C)[C@H](O)[C@@H](C)C(=O)C(C)(C)[C@@H](O)CC(=O)O1

>  <Tgt>
KM12 colon

>  <growth (%)>
5.68

$$$$
>  <Compound>
CCOc1ccc(C(O)CN(C)Cc2ccccc2)cc1Cl (stereo unspecified)

>  <Tgt>
KM12 colon

>  <growth (%)>
100

$$$$
>  <Compound>
O=C(O)c1cccc(CCl)c1

>  <Tgt>
KM12 colon

>  <growth (%)>
96.3

$$$$
>  <Compound>
N#CC1=C(N)Oc2cc3c(cc2C1c1cccs1)OCO3 (stereo unspecified)

>  <Tgt>
KM12 colon

>  <growth (%)>
34.2

$$$$

COc1cc2c(cc1OC)CN(C)C(C)C2 (stereo unspecified) has a reported growth of 102

The reported numbers originate from PubChem BioAssay (NCI).
